Data credit: patent USRE46585

assayed.target: T1, FcRn-p3 fusion protein (human, UniProt P55899 24-297; P61769 21-119)
T1 construct: baculovirus expressed; coated on ELISA wells; not shown: amino terminal part of bacteriophage p3 protein and CVDE protein
T1 sequence (P55899 24-297, chain 1 of 2): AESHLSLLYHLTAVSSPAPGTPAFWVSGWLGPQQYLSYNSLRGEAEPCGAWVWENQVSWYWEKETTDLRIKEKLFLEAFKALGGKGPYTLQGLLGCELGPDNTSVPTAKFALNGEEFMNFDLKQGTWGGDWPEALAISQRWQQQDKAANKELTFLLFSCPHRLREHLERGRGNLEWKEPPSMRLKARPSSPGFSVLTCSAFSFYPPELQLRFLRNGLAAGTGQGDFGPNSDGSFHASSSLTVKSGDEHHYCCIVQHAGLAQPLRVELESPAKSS
T1 sequence (P61769 21-119, chain 2 of 2): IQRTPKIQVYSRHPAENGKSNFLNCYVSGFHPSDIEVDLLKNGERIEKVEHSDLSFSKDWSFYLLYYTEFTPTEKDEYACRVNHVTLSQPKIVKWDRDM
protocol.details: phage ELISA pH6 (est.)
recorded.endpoint: Ratio/FWT (fold)
Give bare numbers, in fold.

{"binder": "T3A_43 (other, EU numbering) CPPCPAPELLGGPSVFLFPPKPKDTLMISRTPEVTCVVEDVSHEDPEVKFNWYVDGVEVHNAKTKPREEQYNSTYRVVSVLTVLHQDWLNGKEYKCKVSNKALPAPIEKTISKAKGQPRGPQVYTLPPSRDELTKNQVSLTCLVKGFYPSDIVVEWESNGQPENNYKTTPPVLDSDGSFFLYSKLTVDKSRWQQGNVFSCSVMHEALHNHYTQKSLSLSPGK", "recorded.value": 4.5}

Next binder, please.
# Ratio/FWT lookup, item M3A_18 (other, EU numbering) CPPCPAPELLGGPSVFLFPPKPKDTLMISRTPEVTCVVVDVSHEDPEVKFNWYVDGVEVHNAKTKPREEQYNSTYRVVSVLPVLHQDWLNGKEYKCKVSNKALPAPIEKTISKAKGQPREPQVYTLPPSRDELTKNQVSLTCLVKGFYPSDIVVEWESNGQPENNYKTTPPVLDSDGSFFLYSKLTVDKSRWQQGTVFSCSVMHEALHNHYTQKSLSLSPGK
6.2
